# reported FIG. 30 FACS value (IC17=0, DQN0139bb=100); entries follow
target: T1, HLA-DQ2.5/alpha 2 gliadin peptide complex on Ba/F3 cells (human; wheat); experiment: FACS
T1 construct: also called Ba/F3-HLA-DQ2.5/alpha 2 gliadin peptide
Reply with just the number.

Example entries and their recorded answers appear below.
binder	measured-number
DQN0324hh (antibody, human IgG1, kappa, V domains shown, also called DQN0324Lh) VH: QSLEESGGDLVKPGASLALTCTASGFSLINNYYMCWVRQAPGKGLEWIACIYAGLGGWTYYASWAKGRFTISKTSSTTVTLQMSSLTVADAATYFCARAATTYYHFNLWGPGTLVTVSS VL: AVVLTQTESPVSAAVGDTVTIKCQASQSIGNALAWYQQKPGQPPKLLIYDASTLASGVPSRFKGSGSGTQFTLTISDLECADAATYYCQSYDYGSSADTYTFGGGTKVEIKR	34.9
DQN0370hh (antibody, human IgG1, kappa, V domains shown, also called DQN0370Lh) VH: QSLEESGGGLVKPGGPLTLTCTASGFSFSSAYYMCWVRQAPGKGLEWIACIYVGSGSTYYTSWAKGRFTISKVSSTTMTLQMTSLTAADTATYFCARDPLIYYYYGELNLWGPGTLVTVSS VL: AVVLTQTASPVSAPVGGTVTIKCQASEDIYSNLAWYQQKPGQRPKVLIYSASTLASGVSSRFKGSRSGTEYTLSITDLGCADAATYYCQAYYDIGGVTFGGGTKVEIKR	83.7
DQN0356bb (antibody, human IgG1, kappa, V domains shown, also called DQN0356Hb; DQN0356Lb) VH: QEQLVESGGGLVKPEGSLTLTCTASGFSFSSDYSVCWVRQAPGKGLEWIGCIYTGSDITYYASWAKGRFTISKTSSTTVTLQMTSLTAADTATWFCARSWNGYGGYADLWGPGTLVTVSS VL: AYDMAQTPASVEVAVGGTVTIKCQASQSIDNYLAWYQQKPGQPPKLLIYWASTLASGVSSRFKGSGSGTQFSLTISDLECADAATYYCQQYYSNSNVVNTFGGGTKVEIKR	85.6

Now for a further binder.
stdin: Requested field: FIG. 30 FACS value (IC17=0, DQN0139bb=100). Item: DQN0344xx (antibody, human IgG1, kappa, V domains shown, also called DQN0344Hx; DQN0344Lx) VH: QSLEESGGGLVKPGGTLTLTCTASGFSFSSSYWMCWVRQAPGKGLEWVACVYGGSDTTYYASWTKGRFTISKGSSTTVALQVTSLTAADTATYFCARDPLNYYYYGELNLWGPGTLVTVSS VL: AVVLTQTASPVSAAVGGTVTIRCQATENIYSGLAWYQQKPGQPPKVLIYYVSTLASGVPSRFKGSGSGTEYTLTISGVQCDDAATYYCQTYHDISNVTFGGGTKVEIKR
stdout: 81.9
